- Tested on: MS2 coat protein
- measurement_notes: apparent KD of MS2 coat protein; designed switch direction (-1 OFF switch, 1 ON switch): 1; higher = weaker reporter binding
- setup_conditions: Eterna round: R95; input ligand: microRNA oligo, concentration not stated
Mark F for apparent KD of MS2 coat protein values under 50 nM, and T for everything at or above.

[Q] Would you say AAGUUAAGCUUUUUGUUCUGCCUAUUCUAACAUGAGGAUCACCCAUGUAGUCAGACGACUGCGUGUGUAGUUGAGAU [JR_SHM208A_Sub029] (puzzle: Sensor for hsa-mir-208a) shows apparent KD of MS2 coat protein at minimum 50 nM?
[A] T

[Q] Lookup AGUCCAGCCUGAGCUGGACAAAAGCAUGUACAUGAGGAUCACCCAUGUUCAUGUACAAGCUUUUUGCUCGUCUUAGU [salish99_208a_r3_061] (puzzle: Sensor for hsa-mir-208a)
[A] F

[Q] Lookup CCAUGGUAACAUGAGGAUCACCCAUGUACAAGCUUUUUGCUCGUCUUACCCGGCGCGCCCAUUAUGGGCGCGCCGGG [Nishu_Seq3] (puzzle: Sensor for hsa-mir-208a version 2)
[A] F

[Q] Lookup UAGAGAGGAAGCGAGGAUAUCGUGUUAGGUACAUGAGGAUCACCCAUGUUGUAGGUAGAGGUAGGCGAGAAGGCGCAGGAGAGGG [JR_SS2_Sub093] (puzzle: Same State 2)
[A] F
